Exercise: state measured IC50, Thiofiavin T aggregation assay for each of the binders provided.
molecular target: T1, Nat1 (LTIITLE) (also: TFA salt); assay: cell-based or functional assay
T1 peptide: LTIITLE
Non-standard residues stand in square brackets, D forms with d. No end group written: not given here.
The answer is to be given in nM; state only the numeric part.

Using the record for [dF][dW][dR][dA][dH][dR][dR] [fwrahrr] , report its IC50, Thiofiavin T aggregation assay.
293

How about "WTKITLH" ?
427

How about [dF][dA][dR][dW][dH][dR][dR] [farwhrr] ?
287

How about [dS][dW][dW][dF][dR][dH][dR] [swwfrhr] ?
187

How about "TFVFRHR" ?
20300

How about [dK][dW][dR][dW][dY][dR][dR] [kwrwyrr] ?
75

How about "LYIKYHR" ?
148

How about "TRIRFYR" ?
64

How about [dR][dW][dR][dI][dL][dQ][dK] [rwrilqk] ?
199

How about "YTIQLWH" ?
46000

How about [dH][dL][dR][dY][dH][dR][dK] [hlryhrk] ?
192

How about [dL][dW][dR][dR][dY][dH][dR] [lwrryhr] ?
108

How about [dQ][dL][dK][dW][dL][dH] [qlkwlh] ?
716

How about "WTRITLE" ?
1340

How about [dK][dL][dK][dW][dA][dY] [klkway] ?
12600
